All values here come from paper PMC7400457.

- assay_remarks: In vivo metabolite identification (MetID) after concomitant omeprazole/D3-omeprazole administration, mouse plasma and brain
- Set-up: species or system Male ICR mice; key: found / not found / E, i.v. route (brain): found / not found / F, p.o. route (brain): found / not found / A, i.p. route (plasma): found / not found / B, i.v. route (plasma): found / not found / C, p.o. route (plasma): found / not found: O, found; -, not found
- test_conditions: 50 mg/kg omeprazole/D3-omeprazole 1:1, i.p., mouse brain
assay_endpoint: D, i.p. route (brain): found / not found

molecule	assay_endpoint	result_value
COc1ccc2nc(S(=O)(=O)Cc3ncc(C)c(OC)c3C)[nH]c2c1 [Metabolite M14, omeprazole sulfone]	D, i.p. route (brain): found / not found	O
COc1ccc2[nH]c([S+]([O-])Cc3ncc(C)c(OC)c3C)nc2c1 (stereo not drawn) [Omeprazole]	D, i.p. route (brain): found / not found	O
COc1ccc2[nH]c(SCc3ncc(C)c(OC)c3C)nc2c1 [Metabolite M15, omeprazole sulfide]	D, i.p. route (brain): found / not found	O
